molecular target: T1, Human CXCR7 (human, UniProt P25106 1-362); test: FACS binding, purified protein on stable HEK-CXCR7 cells
T1 construct: see assay field; also called hCXCR7
T1 sequence (P25106 whole entry): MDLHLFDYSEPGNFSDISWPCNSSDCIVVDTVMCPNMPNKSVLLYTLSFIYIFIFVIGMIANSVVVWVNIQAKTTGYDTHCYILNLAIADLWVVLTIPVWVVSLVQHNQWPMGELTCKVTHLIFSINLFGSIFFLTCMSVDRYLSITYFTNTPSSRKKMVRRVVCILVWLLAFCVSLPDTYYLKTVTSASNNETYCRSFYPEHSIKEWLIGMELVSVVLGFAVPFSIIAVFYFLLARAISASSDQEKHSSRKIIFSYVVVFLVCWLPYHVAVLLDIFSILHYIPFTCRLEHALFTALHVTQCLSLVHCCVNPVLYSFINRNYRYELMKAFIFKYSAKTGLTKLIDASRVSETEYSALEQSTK
Reported property: Plateau [mcf] (mcf)

INSERT INTO assay_data (binder, val) VALUES
  ('Nanobody 07C03 with Tag-2 (VHH, Purified from E. coli periplasm) VHH: EVQLVESGGGLVQAGESLTLSCAASGRTLSAYIMGWFRQAPGKEREFVAGIWSGGYTHLADSAKGRFSISRDNAKNTVYLQMNGLKPEDTAVYYCAAGLRGRQYSNWGQGTQVTVSS', 33100),
  ('Nanobody 08A10 with Tag-2 (VHH, Purified from E. coli periplasm) VHH: EVQLVESGGGLVQAGGSLRLSCAASGSIFSIAAMGWYRQATGKQRELVATITDGGTTTYADSVKGRVTISRDRSANTVYLAMNNLKPDDTAVYYCYAYLRYTSRVPGDNYWGQGTQVTVSS', 34900),
  ('Nanobody 07B11 with Tag-2 (VHH, Purified from E. coli periplasm) VHH: EVQLVESGGNLVQAGGSLGLSCAASVSISSIHIMGWYRQAPGKQRDLVATITSGGSTAYADSVKGRFTVSKDNAKNTVYLQMDSLKPEDTSVYYCAAEVRNGVFGKWNHYWGQGTQVTVSS', 24900),
  ('Nanobody 08A05 with Tag-2 (VHH, Purified from E. coli periplasm) VHH: EVQLVESGGGLVQAGDSLRLSCAASGLTFSNYDMGWFRQAPGKEREFVGASWWSGGAPYYSDSVKGRFTISRDNAKNTVYLQANSLRPEDTAVYYCAAKRLRSFASGGSYDYWGQGTQVTVSS', 28500);
